target: recombinant human ERα (Homo sapiens, UniProt P03372); construct: purchased PanVera Corporation (Madison, Wis.); host or cells: baculovirus-mediated expression system; test: ERα binding assay: competition of [3H]E2 binding by competing estrogens; settings: ratio of relative binding affinities ERα over ERβ
Provide the recorded RBAα/RBAβ for the entries that follow.
Answer with a number only.

GET /value?item= COc1cc2c(cc1O)CC[C@@H]1[C@@H]2CC[C@]2(C)[C@@H](O)CC[C@@H]12 [2-MeO-E2, 2-Methoxyestradiol] &field=RBAα/RBAβ returns 2

GET /value?item= C[C@]12CC[C@@H]3c4cc(O)c(O)cc4CC[C@H]3[C@@H]1C[C@@H](O)[C@@H]2O [2-OH-E3, 2-Hydroxyestriol] &field=RBAα/RBAβ returns 2

GET /value?item= COc1c(O)ccc2c1CC[C@@H]1[C@@H]2CC[C@]2(C)[C@@H](O)[C@H](O)C[C@@H]12 [4-MeO-E3, 4-Methoxyestriol] &field=RBAα/RBAβ returns 1

* * *

Provide the recorded IC50 for the entries that follow.
biological target: recombinant human ERβ (Homo sapiens, UniProt Q92731); construct: purchased PanVera Corporation (Madison, Wis.); host or cells: baculovirus-mediated expression system; test: ERβ binding assay: competition of [3H]E2 binding by competing estrogens; details: read-out: ERβ IC50
Sequence (Q92731 whole entry): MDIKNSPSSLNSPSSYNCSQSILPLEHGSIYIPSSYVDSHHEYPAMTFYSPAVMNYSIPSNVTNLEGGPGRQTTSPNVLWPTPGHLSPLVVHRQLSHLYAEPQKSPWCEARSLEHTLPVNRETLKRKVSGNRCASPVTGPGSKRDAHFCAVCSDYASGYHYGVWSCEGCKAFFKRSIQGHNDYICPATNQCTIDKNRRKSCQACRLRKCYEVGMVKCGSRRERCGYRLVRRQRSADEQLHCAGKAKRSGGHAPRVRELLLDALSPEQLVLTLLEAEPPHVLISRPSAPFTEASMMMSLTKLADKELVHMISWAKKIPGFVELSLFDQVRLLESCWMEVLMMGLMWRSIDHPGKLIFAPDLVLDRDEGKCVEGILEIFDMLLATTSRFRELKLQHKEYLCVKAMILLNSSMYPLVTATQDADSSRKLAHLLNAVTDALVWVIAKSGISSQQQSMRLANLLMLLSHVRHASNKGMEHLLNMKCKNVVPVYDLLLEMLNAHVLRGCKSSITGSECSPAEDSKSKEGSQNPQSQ

GET /value?item= C[C@]12CC[C@@H]3c4cc([N+](=O)[O-])c(O)cc4CC[C@H]3[C@@H]1CCC2=O [2-NO2-E1, 2-Nitroestrone] &field=IC50 returns > 1 µM

GET /value?item= COc1cc2c(cc1OC)[C@H]1CC[C@]3(C)C(=O)CC[C@H]3[C@@H]1CC2 [2,3-diMeO-E1, Estrone 2,3-dimethyl ether] &field=IC50 returns > 1 µM

GET /value?item= C[C@]12CC[C@@H]3c4ccc(O)cc4CC[C@H]3[C@@H]1C[C@@H](O)[C@@H]2O [16α-OH-E2 (E3), 16α-Hydroxyestradiol (Estriol), reference compound] &field=IC50 returns 0.0251 µM

GET /value?item= `COc1c(O)ccc2c1CC[C@@H]1[C@@H]2CC[C@]2(C)[C@@H](O)[C@H](O)C[C@@H]12` &field=IC50 returns 0.631 µM

GET /value?item= CC12CCC3c4cc(O)c(O)cc4CCC3C1CCC2=O (stereo not drawn) [2-OH-E1, 2-Hydroxyestrone] &field=IC50 returns 2 µM

GET /value?item= O=c1c(O)c(-c2cc(O)c(O)c(O)c2)oc2cc(O)cc(O)c12 [Myricetin, reference compound] &field=IC50 returns > 1 µM

* * *

molecular target: recombinant human ERβ (Homo sapiens, UniProt Q92731); construct: purchased PanVera Corporation (Madison, Wis.); host or cells: baculovirus-mediated expression system; experiment: ERβ binding assay: competition of [3H]E2 binding by competing estrogens; details: calculated against E2 = 100
Provide the recorded RBAβ (%) (relative binding affinity for ERβ, of E2) for the entries that follow.
Give a bare numeral; the unit % is implied.

GET /value?item= CC12CCC3c4ccc(O)cc4C(=O)CC3C1CC(O)C2O (centres unmarked) &field=RBAβ (%) (relative binding affinity for ERβ, of E2) returns 3

GET /value?item= C[C@]12CC[C@@H]3c4cc(O)c(O)cc4CC[C@H]3[C@@H]1CC[C@@H]2O [2-OH-E2, 2-Hydroxyestradiol] &field=RBAβ (%) (relative binding affinity for ERβ, of E2) returns 35

GET /value?item= C[C@]12CC[C@@H]3c4ccc(O)cc4C[C@@H](CCCCCCO)[C@H]3[C@@H]1CC[C@@H]2O [E2-7α-(CH2)6OH, 7α-(6-Hydroxyhexanyl)-17β-estradiol] &field=RBAβ (%) (relative binding affinity for ERβ, of E2) returns 40

GET /value?item= C[C@]12CC[C@@H]3c4ccc(O)cc4[C@H](O)C[C@H]3[C@@H]1CC[C@@H]2O [6β-OH-E2, 6β-Hydroxyestradiol] &field=RBAβ (%) (relative binding affinity for ERβ, of E2) returns 2

GET /value?item= C[C@]12CC[C@@H]3c4ccc(O)cc4CC[C@H]3[C@@H]1C[C@@H](O)C2=O [16α-OH-E1, 16α-Hydroxyestrone] &field=RBAβ (%) (relative binding affinity for ERβ, of E2) returns 35

GET /value?item= C[C@]12CC[C@@H]3c4ccc(O)cc4CC[C@H]3[C@@H]1CC(=O)[C@@H]2O [16-Keto-E2, 16-Ketoestradiol] &field=RBAβ (%) (relative binding affinity for ERβ, of E2) returns 18

GET /value?item= C[C@]12CC[C@@H]3c4ccc(O)c(O)c4CC[C@H]3[C@@H]1CC[C@@H]2O [4-OH-E2, 4-Hydroxyestradiol] &field=RBAβ (%) (relative binding affinity for ERβ, of E2) returns 56

GET /value?item= CC12CCC3c4ccc(O)cc4C(=O)CC3C1CCC2O (centres unmarked) [6-Keto-E2, 6-Ketoestradiol] &field=RBAβ (%) (relative binding affinity for ERβ, of E2) returns 56

GET /value?item= C[C@]12CC[C@@H]3c4ccc(O)cc4[C@@H](O)C[C@H]3[C@@H]1CC[C@@H]2O [6α-OH-E2, 6α-Hydroxyestradiol] &field=RBAβ (%) (relative binding affinity for ERβ, of E2) returns 4

GET /value?item= C[C@]12CC[C@@H]3c4ccc(O)cc4CC[C@H]3[C@@H]1[C@@H](O)[C@@H](O)[C@@H]2O [15α-OH-E3, 15α-Hydroxyestriol (Estetrol)] &field=RBAβ (%) (relative binding affinity for ERβ, of E2) returns 3

GET /value?item= CC12CCCC1C1CCc3cc(O)ccc3C1CC2 (centres unmarked) [17-Desoxy-E2, 17-Desoxyestradiol] &field=RBAβ (%) (relative binding affinity for ERβ, of E2) returns 45

GET /value?item= Cc1c(O)ccc2c1CC[C@@H]1[C@@H]2CC[C@]2(C)[C@@H](O)CC[C@@H]12 [4-Methyl-E2, 4-Methylestradiol] &field=RBAβ (%) (relative binding affinity for ERβ, of E2) returns 35

GET /value?item= CC[C@H](c1ccc(O)cc1)[C@@H](CC)c1ccc(O)cc1 [Hexestrol, reference compound] &field=RBAβ (%) (relative binding affinity for ERβ, of E2) returns 60

GET /value?item= COc1c(O)ccc2c1CCC1C2CCC2(C)C(O)CCC12 (centres unmarked) [4-MeO-E2, 4-Methoxyestradiol] &field=RBAβ (%) (relative binding affinity for ERβ, of E2) returns 1

* * *

Target: recombinant human ERα (Homo sapiens, UniProt P03372)
Construct: purchased PanVera Corporation (Madison, Wis.); host or cells: baculovirus-mediated expression system
Sequence (P03372 1-595): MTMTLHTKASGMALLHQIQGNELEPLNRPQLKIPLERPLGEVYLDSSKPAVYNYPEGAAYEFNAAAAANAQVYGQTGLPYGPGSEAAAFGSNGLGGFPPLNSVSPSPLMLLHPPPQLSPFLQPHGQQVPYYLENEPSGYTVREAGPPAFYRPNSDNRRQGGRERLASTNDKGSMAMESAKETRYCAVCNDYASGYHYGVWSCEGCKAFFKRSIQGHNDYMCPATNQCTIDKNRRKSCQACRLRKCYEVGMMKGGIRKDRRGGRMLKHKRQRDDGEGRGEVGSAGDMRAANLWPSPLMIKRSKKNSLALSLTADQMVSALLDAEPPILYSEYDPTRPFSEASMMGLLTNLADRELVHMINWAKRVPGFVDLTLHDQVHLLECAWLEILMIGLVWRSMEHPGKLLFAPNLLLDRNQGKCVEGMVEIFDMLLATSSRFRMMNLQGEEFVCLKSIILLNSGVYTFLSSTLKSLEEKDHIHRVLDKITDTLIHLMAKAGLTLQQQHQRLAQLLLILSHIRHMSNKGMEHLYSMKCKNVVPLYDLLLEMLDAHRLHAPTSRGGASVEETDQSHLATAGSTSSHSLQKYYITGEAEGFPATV
Assay: ERα binding assay: competition of [3H]E2 binding by competing estrogens
Details: ratio of relative binding affinities ERα over ERβ
Cut-off 0.4 on RBAα/RBAβ: below means 1, at or above means -1.

Lab note: confirm whether the reported RBAα/RBAβ for this molecule is below 0.4, equality not counting. molecule: C[C@]12CC[C@@H]3c4ccc(O)cc4CC[C@H]3[C@@H]1CC(=O)[C@@H]2O [16-Keto-E2, 16-Ketoestradiol]
1

Lab note: confirm whether the reported RBAα/RBAβ for this molecule is below 0.4, equality not counting. molecule: C[C@]12CC[C@@H]3c4ccc(O)cc4C(=O)C[C@H]3[C@@H]1CC[C@H]2O [6-Keto-E2-17α, 6-Ketoestradiol-17α]
-1

Lab note: confirm whether the reported RBAα/RBAβ for this molecule is below 0.4, equality not counting. molecule: CC12CCC3c4ccc(O)cc4CCC3C1CC(=O)C2=O (stereo not shown) [16-Keto-E1, 16-Ketoestrone]
1

Lab note: confirm whether the reported RBAα/RBAβ for this molecule is below 0.4, equality not counting. molecule: C[C@]12CC[C@@H]3c4cc(N)c(O)cc4CC[C@H]3[C@@H]1CCC2=O [2-NH2-E1, 2-Aminoestrone]
-1

Lab note: confirm whether the reported RBAα/RBAβ for this molecule is below 0.4, equality not counting. molecule: Cc1cc(O)cc2c1[C@H]1CC[C@]3(C)[C@@H](O)CC[C@H]3[C@@H]1CC2 [1-Methyl-E2, 1-Methylestradiol]
-1

Lab note: confirm whether the reported RBAα/RBAβ for this molecule is below 0.4, equality not counting. molecule: C[C@]12CC[C@@H]3c4ccc(O)cc4CC[C@H]3[C@@H]1C[C@@H](O)C2=O [16α-OH-E1, 16α-Hydroxyestrone]
1
